Reported inhibition at 10 µM values are given for each entry in this list.
target: B1R receptor of the rat (Rattus norvegicus); construct: host or cells: CHO K1 cells (Chinese hamster ovary), stably transfected; experiment: Functional study on the bradykinin receptor 1 (B1R), FLIPR Ca2+ assay, rB1R cells; type: cell-based; details: CHO-K1, test substance 10 μM, agonist Des-Arg9-bradykinin 100 nM, % inhibition compared with the maximum achievable inhibition, read-out: B1R Antagonism, rat [10 μM] % Inhibition
Counter-ions that a name gives are not always drawn.
PROPERTY: inhibition at 10 µM (%)

                                    compound  readout_unit  value_reported
 0  COc1cc(C)c(S(=O)(=O)N2CCCC2COCC(=O)N2CCN(c3cccc(C(F)(F)F)c3)CC2)c(C)c1 (stereo not drawn)             %            98.8
 1  CN1CCC(N2CCN(C(=O)COCC3CCCCN3S(=O)(=O)c3cc(Cl)sc3Cl)CC2)CC1 (stereo not drawn) [Example 170, dihydrochloride]             %            97.8
 2  O=C(COCC1CCCN1S(=O)(=O)c1c(Cl)cc(Cl)cc1Cl)N1CCC(N2CCOCC2)CC1 (stereo not drawn)             %             103
 3  O=C(COCC1CCCCN1S(=O)(=O)c1c(Cl)cccc1Cl)N1CCCC1Cc1ccccn1 (stereo not drawn)             %             101
 4  CN1CCCN(C(=O)COCC2CCCCN2S(=O)(=O)c2c(Cl)cccc2Cl)CC1 (stereo not drawn)             %             104
 5  CN1CCC(N2CCN(C(=O)COCC3CCCCN3S(=O)(=O)c3c(Cl)cc(Br)cc3Cl)CC2)CC1 (stereo not drawn) [Example 160, dihydrochloride]             %              99
 6  COc1cc(C)c(S(=O)(=O)N2CCCCC2COCC(=O)NC(CN(C)C)c2ccccc2)c(C)c1 (stereo not drawn)             %            98.9
 7  COc1cc(C)c(S(=O)(=O)N2CCCCC2COCC(=O)NCCCn2ccnc2)c(C)c1 (stereo not drawn)             %              99
 8  CN1CCC(N2CCN(C(=O)COCC3CCc4ccccc4N3S(=O)(=O)c3ccc4ccccc4c3)CC2)CC1 (stereo not drawn)             %            98.8
 9  O=C(COCC1CCCN1S(=O)(=O)c1ccc(Cl)c(Cl)c1)N1CCN(CC2CCCCC2)CC1 (stereo not drawn)             %               0
10  COc1cc(C)c(S(=O)(=O)N2CCCCC2COCC(=O)Nc2ccc(CCc3nc4ccccc4n3C)cc2)c(C)c1 (stereo not drawn)             %             103
11  CCN(Cc1ccncc1)C(=O)COCC1CCCN1S(=O)(=O)c1c(C)cc(OC)cc1C (stereo not drawn)             %            99.7

----------
Biological target: B1R receptor of the rat (Rattus norvegicus)
Construct: host or cells: CHO K1 cells (Chinese hamster ovary), stably transfected
Test: Functional study on the bradykinin receptor 1 (B1R), FLIPR Ca2+ assay, rB1R cells
Type: cell-based
Details: CHO-K1, test substance 10 μM, agonist Des-Arg9-bradykinin 100 nM, % inhibition compared with the maximum achievable inhibition, read-out: B1R Antagonism, rat [10 μM] % Inhibition
Text: The agonistic or antagonistic action of substances can be quantified on the bradykinin receptor 1 (B1R) of the species human and rat with ectopically expressing cell lines (CHO K1 cells) and with the aid of a Ca^2+-sensitive dye (Fluo-4) using a fluorescent imaging plate reader (FLIPR). […] The agonistic or antagonistic action of substances can be determined on the bradykinin receptor 1 (B1R) of the species human and rat using the following assay. […]
PROPERTY: inhibition at 10 µM (%)

                                    molecule                              assay_target             property  value_reported
 0  CN(C(=O)COCC1CCCCN1S(=O)(=O)c1c(Cl)cc(Cl)cc1Cl)C(CN1CCCC1)c1ccccc1 (stereo not drawn)  B1R receptor of the rat (Rattus norvegicus)  inhibition at 10 µM            99.1
 1  Cc1cc(C)c(S(=O)(=O)N2CCCCC2COCC(=O)NCc2ccccc2N2CCN(C)CC2)c(C)c1 (stereo not drawn)  B1R receptor of the rat (Rattus norvegicus)  inhibition at 10 µM            22.5
 2  COc1cc(C)c(S(=O)(=O)N2CCCCC2COCC(=O)NCCCN2CCOCC2)c(C)c1 (stereo not drawn)  B1R receptor of the rat (Rattus norvegicus)  inhibition at 10 µM            88.4
 3  COc1cc(C)c(S(=O)(=O)N2CCCCC2COCC(=O)N2CCCCCC2c2ccc(N(C)C)cc2)c(C)c1 (stereo not drawn)  B1R receptor of the rat (Rattus norvegicus)  inhibition at 10 µM             102
 4  COc1cc(C)c(S(=O)(=O)N2CCCC2COCC(=O)N2CCN(c3ccc(F)cc3)CC2)c(C)c1 (stereo not drawn)  B1R receptor of the rat (Rattus norvegicus)  inhibition at 10 µM            98.4
 5  Cc1cc(C)c(S(=O)(=O)N2Cc3ccccc3CC2COCC(=O)NCc2ccc(CN3CCCC3)cc2)c(C)c1 (stereo not drawn)  B1R receptor of the rat (Rattus norvegicus)  inhibition at 10 µM            30.8
 6  O=C(COCC1CCCCN1S(=O)(=O)c1c(Cl)cccc1Cl)N1CCN(Cc2ccccc2F)CC1 (stereo not drawn)  B1R receptor of the rat (Rattus norvegicus)  inhibition at 10 µM             100
 7  COCCN1CCN(C(=O)COCC2Cc3ccccc3CN2S(=O)(=O)c2c(C)cc(C)cc2C)CC1 (stereo not drawn)  B1R receptor of the rat (Rattus norvegicus)  inhibition at 10 µM            72.1
 8  CCc1ccc(CC2CCCN2C(=O)COCC2CCCN2S(=O)(=O)c2c(C)cc(OC)cc2C)nc1 (stereo not drawn)  B1R receptor of the rat (Rattus norvegicus)  inhibition at 10 µM             103
 9  O=C(COCC1CCCCN1S(=O)(=O)c1ccc(Cl)c(Cl)c1)N1CCC(N2CCCC2)CC1 (stereo not drawn)  B1R receptor of the rat (Rattus norvegicus)  inhibition at 10 µM            4.56
10  COc1ccc(N2CCN(C(=O)COCC3CCCCN3S(=O)(=O)c3c(C)cc(OC)cc3C)CC2)cc1 (stereo not drawn)  B1R receptor of the rat (Rattus norvegicus)  inhibition at 10 µM            92.9
11  O=C(COCC1CCCN1S(=O)(=O)c1c(Cl)cccc1Cl)NCC1CCCN(Cc2ccccc2)C1 (stereo not drawn)  B1R receptor of the rat (Rattus norvegicus)  inhibition at 10 µM            88.1

----------
Molecular target: B1R receptor of the rat (Rattus norvegicus, UniProt P97583)
Construct: host or cells: CHO K1 cells (Chinese hamster ovary), stably transfected
Sequence (P97583 1-337): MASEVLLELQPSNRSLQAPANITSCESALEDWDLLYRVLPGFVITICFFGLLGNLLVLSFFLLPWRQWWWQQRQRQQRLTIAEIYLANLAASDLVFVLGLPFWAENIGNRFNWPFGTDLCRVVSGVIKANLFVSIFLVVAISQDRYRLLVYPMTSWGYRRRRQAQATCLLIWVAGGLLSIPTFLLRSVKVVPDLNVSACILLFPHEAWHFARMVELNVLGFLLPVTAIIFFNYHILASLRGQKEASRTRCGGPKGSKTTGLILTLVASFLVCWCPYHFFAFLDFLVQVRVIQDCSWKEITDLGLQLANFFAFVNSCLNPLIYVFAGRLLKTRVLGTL
Test: Functional study on the bradykinin receptor 1 (B1R), FLIPR Ca2+ assay, rB1R cells
Type: cell-based
Conditions: test substance 10 μM; rB1R CHO K1 cells; agonist Des-Arg9-bradykinin 100 nM; % inhibition compared with the maximum achievable inhibition
# B1R Antagonism, rat [10 μM] % Inhibition >= 80% gives y, anything below gives n

                                   compound  answer_label
0  COc1cc(C)c(S(=O)(=O)N2CCCCC2COCC(=O)N2CCOC(c3cccnc3)C2)c(C)c1 (centres unmarked)             y
1  O=C(COCC1CCCCN1S(=O)(=O)c1cccc2ccccc12)N1CCCC1CN1CCCCC1 (centres unmarked)             n
2  COc1cc(C)c(S(=O)(=O)N2CCCC2COCC(=O)NCc2ccc(N3CCN(C)CC3)cc2)c(C)c1 (centres unmarked)             y
3  O=C(COCC1CCCCN1S(=O)(=O)c1cccc2ccccc12)N1CCC(N2CCCCC2)CC1 (centres unmarked)             y
4  COc1cc(C)c(S(=O)(=O)N2CCCCC2COCC(=O)NCC(c2ccc(C(F)(F)F)cc2)N2CCOCC2)c(C)c1 (centres unmarked)             y
